test system: MDA-MB-231 breast; test: NCI-60 one-dose screen, 48 h (100 = growth as untreated, 0 = no growth, -100 = all killed); conditions: 10 µM unless noted
The panel holds about 83,000 compounds, 20% with a hit somewhere; the sample as a whole holds those more often.
Quick rule for you: growth at 60% or higher means YES, lower means NO.

Could you verify whether the entry "Cc1ccccc1-c1cc(Cc2ccc(F)cc2)c(=O)[nH]n1" shows growth of no less than 60%?
YES

Hi, just wondering whether "COc1ccc(C(=O)/C=C/c2ccc(OCc3ccccc3)c(OC)c2)cc1OC" shows growth of 60% or higher.
NO

Is growth at least 60%? Consider "[O-][n+]1ccccc1CCN(O)CCc1cccc[n+]1[O-]"
YES

Please look at the following compound next.
Check the entry "COc1cc2nc(-c3ccc(C(F)(F)F)cc3)cc(OCCN3CCCC3)c2cc1OC" : does growth equal or exceed 60%?
YES

* * *

system: SK-MEL-5 melanoma; test: NCI-60 one-dose screen, 48 h (100 = growth as untreated, 0 = no growth, -100 = all killed); conditions: 10 µM unless noted
About 83,000 compounds went through this panel and 20% of them were active in at least one assay; those are over-represented in the sample as a whole.
Decision: growth >= 50% yields yes, all other cases yield no.

Worked cases, answers included:
Does the molecule CC(c1ccccc1)n1ccnc1CO (stereo not drawn) have recorded growth that is 50% or more?
yes

API: above_or_equal(metric=growth, cutoff=50%) for item "O=C1Nc2ccccc2/C1=C\c1cccc(/C=C2/C(=O)Nc3ccccc32)n1"
no

Textbook exercise: given the entry "O=C(N/N=C/c1ccncc1)c1ccccc1Nc1cccc(C(F)(F)F)c1" , state whether its growth is greater than or equal to 50%.
yes

Entry COc1ccc(/C=N/C2=C(C#N)C(c3ccccc3[N+](=O)[O-])c3ccc4ccccc4c3O2)cc1 (stereo not drawn) : is its growth no less than 50%?
yes

Item CCC(C)N(CCNc1cc(OC)cc2cccnc12)CCC(C)C (stereo not drawn) with growth of 50% or above?
yes

Next:
Does the molecule "C=C(C)[C@@H]1CC[C@]2(C(=O)NCC(=O)OC)CC[C@]3(C)[C@H](CC[C@@H]4[C@@]5(C)Cc6c([nH]c7ccccc67)C(C)(C)[C@@H]5CC[C@]43C)[C@@H]12" have recorded growth that is 50% or more?
yes

I'd appreciate it if you could say whether "COc1ccc(/C=C2\COc3ccc(-c4ccccc4)cc3C2=O)cc1O" has growth at least equal to 50%.
no

// inclusive: growth at least 50%? input: "O=C(Nc1ccc2ncnc(Nc3ccc(Oc4cccc(F)c4)c(Cl)c3)c2c1)c1ccc(CNCCO)cc1"
yes

Is it the case that "C=Cc1cc[n+](CCCCCCCCCCCC)cc1" has growth reaching or exceeding 50%?
yes

* * *

system: OVCAR-5 ovarian; assay: NCI-60 one-dose screen, 48 h; conditions: 10 µM unless noted
About 83,000 compounds went through this panel and 20% of them were active in at least one assay; those are over-represented in the sample as a whole. The source made the active and inactive calls. How the source made its calls: active means growth percent below 10; inactive means the rest.
Assign a class; possible classes are active, inactive

Use these answered entries as a reference point.
Field: outcome | Entry: "COC(=O)N[C@H]1CCc2cc(OC)c(OC)c(OC)c2-c2ccc(SC)c(=O)cc21"
active

Identify the outcome logged in this assay for the molecule shown: "COc1cc2nc(-c3ccc(C#N)cc3)[nH]c(=O)c2cc1OC"
inactive

GET /call?item= "COc1ccc(Cl)cc1NC(=O)c1c(NC(=O)C(F)(F)C(F)(F)F)sc2c1CCCCC2" returns the recorded outcome of this test.
inactive

Give the logged outcome of this assay for the following molecule: "C=CCn1c(SCC(=O)Nc2ccc(C(=O)/C=C/c3cc(OC)c(OC)c(OC)c3)cc2)nnc1-c1cc(OC)c(OC)c(OC)c1"
inactive

Fill in: this test's call for CCN(CC)CCCC(C)Nc1c2c(nc3ccc(OC)cc13)CCCC2 (centres undefined) is ___
inactive

Others:
Could you please tell me the result logged for "O=[N+]([O-])c1cccc(-c2nc(-c3ccc(Cl)cc3Cl)cn2-c2ccccc2)c1" in this assay?
inactive

Tell me the recorded outcome of this test for "O=C(CN1CCOCC1)Nc1ccc2ncnc(Nc3ccc(Oc4cccc(F)c4)c(Cl)c3)c2c1" .
inactive

# lookup: test call for COc1cc(NCC(C)(O)CN(CC(C)C)CC(C)C)c2nc(C)ccc2c1 (centres undefined)
inactive

What call does the record list for "N/C(=N\N=C\c1cc2ccccc2s1)N/N=C/c1cc2ccccc2s1" ?
inactive

Which outcome did this test record for the molecule "O=C(CNCCO)Nc1ccc2ncnc(Nc3ccc(OCc4cccc(F)c4)c(Cl)c3)c2c1" ?
inactive

Call for entry "CC(=O)[C@@H]1CC[C@]2(C(=O)n3ccnc3)CC[C@]3(C)[C@H](CC[C@@H]4[C@@]5(C)Cc6c([nH]c7ccccc67)C(C)(C)[C@@H]5CC[C@]43C)[C@@H]12" :
inactive

// param item: "O=C(N/N=C/c1ccc(O)c(O)c1)c1sc2ccccc2c1Cl" ; yields the recorded call
inactive

Hey, what did the test say about "O=C(Cc1ccc(/C=C/C(=O)c2ncc[nH]2)cc1)Nc1ccc(C(F)(F)F)cc1" ?
inactive

Any idea what this test logged for "O=C1Nc2ccccc2/C1=N/c1nc(-c2ccc(Cl)cc2)cs1" ?
inactive

Could you check what this test reported for "CCCCCN1C=C/C(=C\C(=O)N(C)c2cccc3ccccc23)c2ccccc21" ?
inactive

Field: outcome | Entry: CC(=O)OCC(=O)C1(O)C(C)CC2C3C=C(C)C4=Cc5c(cnn5-c5ccccc5)CC4(C)C3C(O)CC21C (centres undefined)
inactive

Record lookup: outcome of this test for "CN(C)CCCn1c2c(c3ccc(-c4ccn[nH]4)cc3c1=O)C(=O)c1ccccc1-2" ?
inactive

State the result this test recorded for "O=S(=O)(NCCNc1nccc(-c2c(-c3cccc(F)c3)nc3occn23)n1)c1cccc2ccccc12" .
inactive

Call for entry "Cc1ccc2nc3c(cc2c1)CSc1nnc(-c2ccc[nH]c2=S)n1N3" :
inactive

* * *

Listed here are compounds together with their documented growth.
system: SNB-19 CNS; assay: NCI-60 one-dose screen, 48 h (100 = growth as untreated, 0 = no growth, -100 = all killed); conditions: 10 µM unless noted
About 83,000 compounds went through this panel and 20% of them were active in at least one assay; those are over-represented in the sample as a whole.
Answer with a number only, understood to be in %.

Known growth results, listed for orientation:
# return recorded growth for entry "Cc1ccccc1C(c1ccccc1)c1ccccc1C"
98.7

Assign growth to the following record: "NC(=O)c1cccc(-c2cc(C(N)=O)ccc2Cl)c1"
41.6

Fill in reported growth for this entry: "O=C(CSc1nc2sc3c(c2c(=O)n1Cc1ccccc1)CCCC3)N1CCN(c2ccccc2)CC1"
110

More entries:
Fill in reported growth for this entry: "CC(=O)OCCCCCNc1ccccc1"
107

Tell us which growth value is on record for "COc1cc2oc(-c3cccc(C(=O)Nc4ccc(Cl)cc4)c3)cc(=O)c2c(OC)c1OC"
52.7

Please list growth recorded for the compound "CC(=O)c1c(-c2ccc(OC(F)(F)F)cc2)nc2ccccn12"
99.1

Complete the entry with growth for "Cc1c([N+](=O)[O-])cc(C(C)(C)C)cc1[N+](=O)[O-]"
102

For the compound "CC1(C)CN(c2cnc(C(=O)Nc3cc(F)cc4cccnc34)cn2)CCN1" , report growth.
93.1

Identify measured growth associated with CN(C)C(C(N)=O)c1ccc(Cl)cc1 (configuration not stated)
99.9

# return recorded growth for input "O=C(NCCN1CCOCC1)OCc1nc2nc(Cl)nc(N3CCOCC3)c2[nH]1"
36.2

Dear colleague, please send me the reported growth for COc1ccc(C2=NN(C(C)=O)C(c3cn(Cc4ccc(Cl)cc4)c4ccccc34)C2)cc1 (configuration not stated) when you can.
76

State, in one line, measured growth of "COc1cnccc1-c1nc2ccc3[nH]ncc3c2c2c1CCCC2"
85.3

Give me measured growth, please, for this compound: "COc1cc(-c2cc(=O)oc3cc(O)ccc23)c(OC)c2c1OCO2"
97.4

Please indicate growth recorded for "COc1cc(Nc2cc(O)c3c(=O)cc(-c4ccccc4)oc3c2)cc(OC)c1"
43.1

Return value of growth for input "ClCC1(Cn2cnc3c(Cl)nc(Cl)nc32)COC1" , no commentary.
88.8

Identify the reported growth for the following entry. "O=C1NC(=S)NC(=O)C1=Cc1cn(Cc2ccccn2)c2ccccc12"
53.4

Provide measured growth value, entry: "O=C(Nc1nc2ccc(C(=O)N3CCN(c4ccc(Cl)c(Cl)c4)CC3)cc2s1)c1ccc(NCCc2ccccc2)c([N+](=O)[O-])c1"
100

In one line, give reported growth of the entry "CCNC(=S)NNC(=O)c1cc2ccc1CCc1ccc(cc1)CC2" .
100

Give the measured growth for CCN1C(=O)N(CC)C2NC(SC)=NC21 (configuration not stated)
97.8

Item COc1ccc(C2CC(c3cccc(Nc4ccncc4)c3)=NN2c2ccc(Cl)cc2)cc1 (configuration not stated) : provide growth
90.4

Read off the recorded growth for "CC(C)[N+](C)(CCOC(COc1ccccc1)COc1ccccc1)C(C)C"
86.2

Please supply the value of reported growth for the item "CC(=O)O[C@H]1CC[C@@]2(C)[C@@H](CC[C@@H]3[C@@H]2CC[C@@]2(C)[C@H]3CC[C@]2(O)C(C)=O)C1"
102

These measurements were taken from PubChem BioAssay (NCI).
